What growth was measured for each of the following?
System: NCI-H23 lung
assay_procedure: NCI-60 one-dose screen, 48 h (100 = growth as untreated, 0 = no growth, -100 = all killed)
condition_notes: 10 µM unless noted
Compounds without any hit were thinned out: in the full panel of roughly 83,000, 20% have a hit.
The reply should contain only the number, in %.

Input line: Entry C#CC#CC#CC#CC#CC#CC#CC#CC[C@H]1OC[C@@H](COC(=O)O[C@@H](C(=O)O[C@H]2C[C@@]3(O)[C@@H](OC(=O)c4ccccc4)[C@@H]4[C@]5(OC(C)=O)CO[C@@H]5C[C@H](O)[C@@]4(C)C(=O)[C@H](OC(C)=O)C(=C2C)C3(C)C)[C@@H](NC(=O)c2ccccc2)c2ccccc2)O1 has what growth?
Output line: 48

Input line: Entry O=C1/C(=C/c2ccccc2[N+](=O)[O-])COc2ccc(O)cc21 has what growth?
Output line: 18.8

Input line: Entry COc1ccc(C/C(C)=C(\c2ccc(O)cc2)c2ccc(OCCN3CCCC3)cc2)cc1 has what growth?
Output line: 105

###

Tested on: UACC-257 melanoma
assay_procedure: NCI-60 one-dose screen, 48 h
condition_notes: 10 µM unless noted
This is part of a sample that, as a whole, favours compounds with a hit. Of some 83,000 tested, about 20% had one in any assay. Activity calls are given as the source filed them. The calls were made as follows: active = growth percent below 10; inactive = the rest.
Classes to choose from: TRUE (active), FALSE (inactive)

Input line: Which result was noted for this molecule in the test: COc1cc2cc(Oc3ccc(NC(=O)Nc4ccccc4)cc3)c(C)nc2cc1OCCN1CCCCC1
Output line: FALSE

Input line: Which result was noted for this molecule in the test: C#CCn1cnc2c(Nc3cccc(NC(=O)CCl)c3)ncnc21
Output line: FALSE

Input line: Which result was noted for this molecule in the test: O=C(CSc1nc2ccc([N+](=O)[O-])cc2[nH]1)Nc1ccc(Br)cc1
Output line: FALSE

Input line: Which result was noted for this molecule in the test: Cc1ccc(-c2csc(NC(=O)N3CCN(c4cc5c(cc4F)c(=O)c(C(=O)O)cn5C4CC4)CC3)n2)cc1
Output line: TRUE

Input line: Which result was noted for this molecule in the test: COC(=O)c1nc(-c2ccccc2)oc1S(=O)(=O)N1CCC(C(N)=O)CC1
Output line: FALSE

Input line: Which result was noted for this molecule in the test: CC(=O)Nc1c(Cl)cc(Cl)c2c1Cc1cc([N+](=O)[O-])ccc1-2
Output line: FALSE

Input line: Which result was noted for this molecule in the test: CC[C@H](CC[C@@H](C)[C@H]1CC[C@H]2[C@@H]3CC[C@@H]4CC(=O)/C(=C\c5ccncc5)C[C@]4(C)[C@H]3CC[C@]12C)C(C)C
Output line: FALSE

Input line: Which result was noted for this molecule in the test: COc1cc(/C=C2\C(=O)N(c3c(Cl)cccc3Cl)c3ccccc32)cc(OC)c1OCCCCCCn1c2ccccc2c(=O)c2ccccc21
Output line: FALSE

Input line: Which result was noted for this molecule in the test: CCCCSCC(=O)c1ccccc1
Output line: FALSE

Input line: Which result was noted for this molecule in the test: CCN(CC)c1ccc(/C=N\NC(=O)c2cccc(Nc3ccnc(C(F)(F)F)c3)c2)c(O)c1
Output line: FALSE

Input line: Which result was noted for this molecule in the test: S=c1ssnc1-c1cccs1
Output line: FALSE

Input line: Which result was noted for this molecule in the test: COc1cc2c3c(c1O)-c1ccccc1[C@@H]1OC(=O)N(CC2)[C@H]31
Output line: FALSE

Input line: Which result was noted for this molecule in the test: COc1ccccc1-n1c(-c2cc(O)ccc2C)cn2c3c(=O)[nH]c(=O)n(C)c3nc12
Output line: FALSE

Input line: Which result was noted for this molecule in the test: N=C(N)SCc1cccc2c(CSC(=N)N)cccc12
Output line: FALSE

Input line: Which result was noted for this molecule in the test: CCN(CC)CCCNCc1cc(-c2ccccc2)nc2cc(Cl)ccc12
Output line: TRUE

Input line: Which result was noted for this molecule in the test: NC(=O)OCCn1cc(-c2nc(-c3c[nH]c4ncccc34)cs2)c2ccccc21
Output line: FALSE

Input line: Which result was noted for this molecule in the test: CCOC(=O)c1cn2ncnc(Oc3ccc(NC(=O)NC4CC4)c(F)c3)c2c1C
Output line: FALSE

Input line: Which result was noted for this molecule in the test: C=CCn1c(SCC(=O)Nc2ccc(C(=O)/C=C/c3cc(OC)c(OC)c(OC)c3)cc2)nnc1-c1cc(-c2ccc(OC)cc2)nc2ccccc12
Output line: FALSE

Input line: Which result was noted for this molecule in the test: COC(=O)C1=C(C(=O)Nc2cccnc2)C2OC1(C(Cc1ccccc1)Oc1ccccc1)C1OC21 (centres undefined)
Output line: FALSE

Data provenance: PubChem BioAssay (NCI)
